Entries and their pIC50
Target: IDH1 R132H (Homo sapiens (Human), UniProt O75874, R132H)
Sequence (O75874 whole entry R132H): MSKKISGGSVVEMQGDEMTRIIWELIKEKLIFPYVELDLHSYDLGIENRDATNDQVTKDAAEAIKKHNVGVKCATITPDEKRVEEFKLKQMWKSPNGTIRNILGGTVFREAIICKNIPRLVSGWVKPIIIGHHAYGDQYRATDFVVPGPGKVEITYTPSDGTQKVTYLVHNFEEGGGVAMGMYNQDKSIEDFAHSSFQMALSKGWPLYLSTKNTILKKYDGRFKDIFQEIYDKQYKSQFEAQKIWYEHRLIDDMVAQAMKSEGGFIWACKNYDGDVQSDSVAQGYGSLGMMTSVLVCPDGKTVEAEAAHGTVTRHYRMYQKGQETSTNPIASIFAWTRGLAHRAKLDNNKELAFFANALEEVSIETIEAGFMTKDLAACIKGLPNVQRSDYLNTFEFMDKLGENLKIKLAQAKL
Assay: Assays for IDH1 R132H Inhibitors (NADPH/aKG, resazurin detection)
Type: biochemical
Details: IDH1 R132H enzyme, Table 2; read-out: IDHR132H Activity
pIC50: −log10 of the molar value.
Recorded endpoint: pIC50

compound="CCOC(=O)C1CN(c2nc(C(C)C)c3c(c2C#N)CC(C)(C)OC3)CCN1C(=O)CCOC (stereo not drawn) [Compound 311]" test_result="6.00 to 6.30"
compound="C[C@H]1CN(C(=O)c2ccco2)CCN1c1nc(C2CCCCC2)c2c(c1C#N)CCOC2 [Compound 201]" test_result="5.00 to 6.00"
compound="CC(C)[C@@H]1CN(c2nc(C3CC3)c3c(c2C#N)CC(C)(C)OC3)CCN1C(=O)C1CCOCC1 [Compound 305]" test_result="5.00 to 6.00"
compound="CC1CN(c2nc(C3CCCCC3)c3c(c2C#N)CCOC3)CCN1C(=O)c1ccoc1 (stereo not drawn) [Compound 133]" test_result="5.00 to 6.00"
compound="COCC1CN(c2nc(C3CC3)c3c(c2C#N)CC(C)(C)OC3)CCN1C(=O)c1ccoc1 (stereo not drawn) [Compound 402]" test_result="5.00 to 6.00"
compound="C[C@@H]1CN(c2nc(C3CCCCC3)c3c(c2C#N)CC(C)(C)OC3)CCN1C(=O)c1ccoc1 [Compound 151]" test_result="5.00 to 6.00"
compound="CC(C)c1nc(N2CCN(C(=O)c3ccco3)[C@H](c3ccccc3)C2)c(C#N)c2c1COC(C)(C)C2 [Compound 200]" test_result="5.00 to 6.00"
compound="CC(C)[C@@H]1CN(c2nc(C3CC3)c3c(c2C#N)CC(C)(C)OC3)CCN1C(=O)Cn1ccc2ccccc21 [Compound 406]" test_result="5.00 to 6.00"
compound="Cc1ccn(CC(=O)N2CCN(c3nc(C4CC4)c4c(c3C#N)CC(C)(C)OC4)C[C@H]2C(C)C)n1 [Compound 400]" test_result="5.00 to 6.00"
compound="CC(C)c1nc(N2CCN(C(=O)c3cccnc3)[C@H](C)C2)c(C#N)c2c1COC(C)(C)C2 [Compound 249]" test_result="5.00 to 6.00"
compound="CCc1nc(N2CCN(C(=O)CCOC)[C@H](C(C)C)C2)c(C#N)c2c1COC(C)(C)C2 [Compound 413]" test_result="> 6.30"
compound="CC(C)c1nc(N2CCN(C(=O)c3cocn3)[C@H](C(C)C)C2)c(C#N)c2c1COC(C)(C)C2 [Compound 212]" test_result="6.00 to 6.30"
compound="COCCC(=O)N1CCN(c2nc(C3CCCCC3)c3c(c2C#N)CC(C)(C)OC3)C[C@H]1C [Compound 312]" test_result="5.00 to 6.00"
compound="CC(=O)OCC(C)(C)C(=O)N1CCN(c2nc(C3CC3)c3c(c2C#N)CC(C)(C)OC3)C[C@H]1C(C)C [Compound 419]" test_result="5.00 to 6.00"
compound="C[C@@H]1CN(c2nc(C3CCCCC3)c3c(c2C#N)CCOC3)CCN1C(=O)c1cscn1 [Compound 239]" test_result="5.00 to 6.00"
